From: PubChem BioAssay (NCI)

Tested on: UACC-257 melanoma
Experiment: NCI tumour cell line growth inhibition, 48 h
metricName: TGI

compound: O=c1c2ccccc2nc(N/N=C/c2ccc(Cl)cc2)n1-c1ccccc1
readoutValue: > 100 µM
//
compound: C1=C\CCCCN2CC[C@H]3[C@H](CCCC/C=C\CCCN4C[C@@H](CCCCC/1)C[C@@H]3C4)C2
readoutValue: 3.5 µM
//
compound: CC(=O)OCC1=CC2CCC3C(C)(CCC[C@]3(C)COC(C)=O)C23CC[C@H]1C3 (stereo not given in full)
readoutValue: > 100 µM
//
compound: COc1ccc2[nH]c3c(O)c(-c4c(C)cc5c([nH]c6ccc(OC)cc65)c4O)c(C)cc3c2c1
readoutValue: 8.32 µM
//
compound: COC1OC(Cn2cc([N+](=O)[O-])nc2C)C(O)C(O)C1O (stereo not given)
readoutValue: > 100 µM
//
compound: COC(=O)C(=O)C(C(C)=O)C(=O)C(=O)Nc1ccc(C)cc1C (stereo not given)
readoutValue: > 100 µM
//
compound: Cc1cn2c(/C=C3\C(=O)N(C)c4ccc(Cl)cc43)c(C)nc2s1
readoutValue: 38.6 µM
//
compound: O=C1C2C3C=C4c5ccccc5N(c5ccccc5)C4([C@@H]2C(=O)N1c1ccc(F)cc1)[C@H]1C(=O)N(c2ccc(F)cc2)C(=O)[C@@H]31 (stereo not given in full)
readoutValue: > 100 µM
//
compound: CC(=O)N1N=C(c2ccc3ccccc3c2O)CC1c1ccc(N(C)C)cc1 (stereo not given)
readoutValue: > 100 µM
//
compound: Cc1nn(C(=O)c2ccc(Cl)cc2)c2c1C(c1ccc(Cl)cc1)SC(N)=N2 (stereo not given)
readoutValue: > 10 µM
//
compound: N/C(=N/S(=O)(=O)c1cc(C(=O)Nc2ccc(F)cc2)c(Cl)cc1SCc1ccccc1)Nc1ccccc1O
readoutValue: 26.7 µM
//
compound: Cc1cc(S(=O)(=O)NC2=NCC(C)(C)CN2)c(S)cc1Cl
readoutValue: > 100 µM
//
compound: COc1nc2c(c(=O)[nH]1)N=C(c1ccc(Cl)cc1)CC(c1ccccc1)N2 (stereo not given)
readoutValue: > 100 µM
//
compound: CCC(=O)CCC1=Nc2nnc(CCCCc3nnc4n3C(=O)C(CCC(=O)CC)=N4)n2C1=O
readoutValue: > 100 µM
//
compound: Cc1cn(C2CC(O)C(COC(N)=O)O2)c(=O)[nH]c1=O (stereo not given)
readoutValue: > 100 µM
//
compound: COc1ccc(NC(=O)NNS(=O)(=O)c2ccc(C)cc2)cc1
readoutValue: > 100 µM
//
compound: Cn1c(=O)[nH]c2c(c1=O)C(=O)CN2
readoutValue: > 100 µM
//
compound: CN(C)C/C=C/C(=O)Nc1cc2c(Nc3cccc(Cl)c3F)ncnc2cc1OCCOC(F)F
readoutValue: 15.5 µM
//
compound: CN1N=C(c2ccccc2)c2cc(Cl)ccc2N=C1N/N=C/c1ccc(N(C)C)cc1
readoutValue: > 100 µM
//
compound: CC(C)=CCOc1ccc(-c2coc3cc4c(c(O)c3c2=O)C=CC(C)(C)O4)cc1
readoutValue: > 100 µM
//
compound: CC(=O)[CH-]C(=O)c1ccccc1.CC(=O)[CH-]C(=O)c1ccccc1.CC(=O)[CH-]C(=O)c1ccccc1.[Br-].[Zr+4]
readoutValue: > 100 µM
//
compound: CCC(C)C(=O)OC1CCC=C2C=CC(C)C(CCC3CC(O)CC(=O)O3)C21 (stereo not given)
readoutValue: > 100 µM
//
compound: COc1cc2c(cc1O)C(=O)O[C@@H]1CC=C3CCN(C)[C@H]3[C@H]21
readoutValue: > 25 µM
//
compound: COc1ccc2nc3ccccc3c(NCc3ccccc3)c2c1
readoutValue: 4.88 µM
//
compound: CCOC(=O)CCSC1=CC(=O)c2nc3ccccc3c3ccnc1c23
readoutValue: 35.7 µM
//
compound: Cc1ccc(/C(=C/C=C(C#N)C#N)Sc2nc3ccccc3s2)cc1
readoutValue: 27.3 µM
//
compound: CC(=O)c1ccc(Oc2c3ccccc3nc3occc23)cc1
readoutValue: > 100 µM
//
compound: OCC1OC(n2cnc3c(NCc4ccco4)ncnc32)C(O)C1O (stereo not given)
readoutValue: > 100 µM
//
compound: NS(=O)(=O)c1cc(C(=O)O)c(Cl)c([N+](=O)[O-])c1Cl
readoutValue: > 100 µM
//
compound: O=Cc1ccc(-c2ccc(S(=O)(=O)O)cc2)o1
readoutValue: > 100 µM

----------
This section presents molecules with their documented TGI values.
Tested on: SNB-19 CNS
Test: NCI tumour cell line growth inhibition, 48 h
metricName: TGI

molecule: N/C(=N/S(=O)(=O)c1cc(C(=O)Nc2ccc(F)cc2)c(Cl)cc1SCc1ccccc1)Nc1ccccc1O
readoutValue: > 100 µM
--
molecule: O=C(NCCN(CCNC(=O)c1cccc(=O)n1O)CCNC(=O)c1cccc(=O)n1O)c1cccc(=O)n1O
readoutValue: > 100 µM
--
molecule: Cc1nn(C(=O)c2ccc(Cl)cc2)c2c1C(c1ccc(Cl)cc1)SC(N)=N2 (stereo not given)
readoutValue: > 10 µM
--
molecule: COC(=O)CNC(=O)CSc1nnc(COc2ccc(Cl)cc2)n1-c1ccccc1
readoutValue: > 100 µM
--
molecule: O=c1[nH]c2ccccc2n1C1CCN(CCOc2ccccc2)CC1
readoutValue: > 100 µM
--
molecule: C=C1C(=O)O[C@H]2[C@H]1CC/C(COC(=O)N[C@H](Cc1c[nH]c3ccccc13)C(=O)OC)=C\CC[C@@]1(C)O[C@@H]21
readoutValue: 22.6 µM
--
molecule: COc1ccc(C(Nc2ccccn2)c2cc(C(C)(C)C)cc(C(C)(C)C)c2O)cc1 (stereo not given)
readoutValue: > 100 µM
--
molecule: C[Si](C)(C)/C=C/CN1C(=O)CCC1=O
readoutValue: > 100 µM
--
molecule: C=C1C(O)C2CC(C)(C)C(=O)C2=C(CC(C)C)C12CC2 (stereo not given)
readoutValue: > 100 µM
--
molecule: CC1(C)CC[C@]2(CO)CC[C@]3(C)C(=CC[C@@H]4[C@@]5(C)CCNCC(C)(C)[C@@H]5CC[C@]43C)[C@@H]2C1
readoutValue: 26.8 µM
--
molecule: Cn1c(=O)[nH]c2c(c1=O)C(=O)CN2
readoutValue: > 100 µM
--
molecule: COc1ccc(NC(/C(C(=O)C(=O)/C=C(\O)c2ccccc2)=C(\O)c2ccccc2)c2ccc(OC)cc2)cc1 (stereo not given)
readoutValue: > 100 µM
--
molecule: N#CC(C#N)=C1CCC2C(=C(C#N)C#N)CCC12 (stereo not given)
readoutValue: > 100 µM
--
molecule: CC1(C)CCC[C@@]2(C)C1CC[C@@]1(CO1)[C@@H]2/C=C\C(C=O)CC=O (stereo not given in full)
readoutValue: > 100 µM
--
molecule: CCOC(=O)CCn1cnc(N)n1
readoutValue: > 100 µM

----------
Tested on: CAKI-1 renal
Assay: NCI tumour cell line growth inhibition, 48 h
// reported TGI per item

compound: COC(=O)[C@H](CCCCNC(=O)OCc1ccccc1)NC(=O)[C@@H](NC(=O)Nc1cc(C(F)(F)F)cc(C(F)(F)F)c1)C(C)C
TGI: > 10 µM
--
compound: CCOC(=O)CCn1cnc(N)n1
TGI: > 100 µM
--
compound: O=C(c1ccc(Nc2nccc(NCCCCNc3ccnc4cc(Cl)ccc34)n2)cc1)N1CCCCC1
TGI: 8.84 µM
--
compound: COc1cccc(-c2nn(-c3ccccc3)cc2-c2ccnc(NCCCNS(=O)(=O)c3ccc(C(F)(F)F)cc3)c2)c1
TGI: > 100 µM
--
compound: CSc1cc(C(C)(C)C)ccc1C(O)c1ccc(C(C)(C)C)cc1SC
TGI: 24.9 µM
--
compound: CCCCCCCCCCCCCCCCCCOCC(O)CO (configuration not stated)
TGI: > 5.39 µM
--
compound: c1ccc(/C(=N\Nc2nc3ccccc3s2)c2ccccn2)cc1
TGI: > 100 µM
--
compound: CCC(C)C(=O)OC1CCC=C2C=CC(C)C(CCC3CC(O)CC(=O)O3)C21 (configuration not stated)
TGI: 29 µM
--
compound: CCN(CC)CCCC(C)Nc1ccnc(/C=C/c2ccc(Cl)cc2)c1 (configuration not stated)
TGI: 4.11 µM
--
compound: COC(=O)C(=O)C(C(C)=O)C(=O)C(=O)Nc1ccc(C)cc1C (configuration not stated)
TGI: > 100 µM
--
compound: N#CCC(=O)Nc1ccccc1O
TGI: > 100 µM
--
compound: O=c1c2ccccc2nc(N/N=C/c2ccc(Cl)cc2)n1-c1ccccc1
TGI: > 100 µM
--
compound: C1=Cc2cccc3occ(c23)C=C1
TGI: > 100 µM
--
compound: Cc1ccc2c(c1)CC1(C2)Cc2ccc(C)cc2C1=O (configuration not stated)
TGI: 87.2 µM
--
compound: C/C(=C\CC/C=C(\C)CC/C=C(\C)CCC1SC1(C)C)CC/C=C(\C)CCC1OC1(C)C (configuration not stated)
TGI: > 100 µM
--
compound: CC(C)(C)NC(=S)N/N=C/c1ccccn1
TGI: > 100 µM
--
compound: O=Cc1ccc(-c2ccc(S(=O)(=O)O)cc2)o1
TGI: > 100 µM
--
compound: COc1cc2c(cc1O)C(=O)O[C@@H]1CC=C3CCN(C)[C@H]3[C@H]21
TGI: > 25 µM
--
compound: CCOC(=O)CCSC1=CC(=O)c2nc3ccccc3c3ccnc1c23
TGI: 31.9 µM
--
compound: COC1(C)CNCC(C)(C)NC(=O)C(C)(OC)CNCC(C)(C)NC1=O (configuration not stated)
TGI: > 100 µM
--
compound: COC(=O)[C@@H]1[C@H]2CC[C@]3(C)[C@@H](OC(C)=O)CC[C@H]3[C@@H]2CC[C@H]1C(C)=O
TGI: > 100 µM
--
compound: Cc1ccc(NC2=CC(=O)C(=O)c3ccccc32)cc1
TGI: 16.5 µM
